Just for reference, patent US20240025906A1 is where these values come from.

Target: TYK2 JH2 (Homo sapiens)
Construct: purchased DiscoverX (KINOMEscan KdELECT service); host or cells: E. coli BL21-derived (T7 phage display) or HEK-293
Test: TYK2 JH2 binding assay (KINOMEscan KdELECT competitive binding)
Conditions: TYK2 JH2 domain, KINOMEscan KdELECT (Assay A); read-out: Biochemical TYK2_JH2_Kd
Overview of reported Kd across a group of molecules:

Examples from the recorded data:
Task item: Supply reported Kd belonging to this molecule: `CNc1ncc(COc2ccccc2)c2cc(NC(=O)C3CC3)ncc12`
Reply: ≤ 0.1 µM

Task item: Supply reported Kd belonging to this molecule: `CNc1ncc(-c2ccc(COC)cc2)c2cc(NC(=O)C3CC3)ncc12`
Reply: ≤ 0.1 µM

Task item: Supply reported Kd belonging to this molecule: CNc1ncc(C2CCOC2)c2cc(NC(=O)C3CC3)ncc12 (stereo not shown)
Reply: ≤ 0.1 µM

Task item: Supply reported Kd belonging to this molecule: `CNc1ncc(-c2ccc(OC3CCN(C)CC3)cc2)c2cc(NC(=O)C3CC3)ncc12`
Reply: ≤ 0.1 µM

Task item: Supply reported Kd belonging to this molecule: `CNc1ncc(-c2ccccc2)c2cc(NC(=O)C3(F)CC3)ncc12`
Reply: ≤ 0.1 µM

Task item: Supply reported Kd belonging to this molecule: `CNc1ncc(-c2cccc(-c3ncnn3C)c2)c2cc(NC(=O)C3CC3)ncc12`
Reply: ≤ 0.1 µM

Task item: Supply reported Kd belonging to this molecule: `CNc1ncc(-c2nc3ccccc3o2)c2cc(NC(=O)C3CC3)ncc12`
Reply: ≤ 0.1 µM

Task item: Supply reported Kd belonging to this molecule: `CNc1ncc(-c2ccccc2OC)c2cc(NC(=O)C3CC3)ncc12`
Reply: 0.1 to 1 µM

More entries:
Task item: Supply reported Kd belonging to this molecule: `CNc1ncc(-c2ccncc2)c2cc(NC(=O)C3CC3)ncc12`
Reply: ≤ 0.1 µM

Task item: Supply reported Kd belonging to this molecule: `CNc1ncc(-c2ccc(C#N)cc2)c2cc(NC(=O)C3CC3)ncc12`
Reply: ≤ 0.1 µM

Task item: Supply reported Kd belonging to this molecule: `CNc1ncc(-c2ccccc2C#N)c2cc(NC(=O)C3CC3)ncc12`
Reply: 0.1 to 1 µM

Task item: Supply reported Kd belonging to this molecule: `CNc1ncc(-c2cc(C)no2)c2cc(NC(=O)C3CC3)ncc12`
Reply: ≤ 0.1 µM

Task item: Supply reported Kd belonging to this molecule: `CNc1ncc(-c2csc(C)n2)c2cc(NC(=O)C3CC3)ncc12`
Reply: ≤ 0.1 µM

Task item: Supply reported Kd belonging to this molecule: `CNc1ncc(-c2cn(C)c3ncccc23)c2cc(NC(=O)C3CC3)ncc12`
Reply: ≤ 0.1 µM

Task item: Supply reported Kd belonging to this molecule: `CNc1ncc(-c2ccccc2)c2cc(NCC3CC3)ncc12`
Reply: 1 to 10 µM

Task item: Supply reported Kd belonging to this molecule: `CNc1ncc(Oc2ccccn2)c2cc(NC(=O)C3CC3)ncc12`
Reply: ≤ 0.1 µM

Task item: Supply reported Kd belonging to this molecule: `CNc1ncc(-c2nc(-c3ccccc3)co2)c2cc(NC(=O)C3CC3)ncc12`
Reply: ≤ 0.1 µM

Task item: Supply reported Kd belonging to this molecule: `CNc1ncc(-c2cccnc2)c2cc(NC(=O)C3CC3)ncc12`
Reply: ≤ 0.1 µM

Task item: Supply reported Kd belonging to this molecule: CNc1ncc(CC2CCOC2)c2cc(NC(=O)C3CC3)ncc12 (stereo not shown)
Reply: ≤ 0.1 µM

Task item: Supply reported Kd belonging to this molecule: CNc1ncc(-c2nc3cc(N4CCCC(N5CC(F)(F)C5)C4)ccn3n2)c2cc(NC(=O)C3CC3)ncc12 (stereo not shown)
Reply: ≤ 0.1 µM

Task item: Supply reported Kd belonging to this molecule: `CNc1ncc(C(N)=O)c2cc(NC(=O)C3CC3)ncc12`
Reply: ≤ 0.1 µM

Task item: Supply reported Kd belonging to this molecule: `CCn1nccc1-c1cnc(NC)c2cnc(NC(=O)C3CC3)cc12`
Reply: ≤ 0.1 µM

Task item: Supply reported Kd belonging to this molecule: `O=C(Nc1cc2c(-c3ccccc3)cnc(NCCO)c2cn1)C1CC1`
Reply: ≤ 0.1 µM

Task item: Supply reported Kd belonging to this molecule: `CNc1ncc(-n2ccccc2=O)c2cc(NC(=O)C3CC3)ncc12`
Reply: 1 to 10 µM

Task item: Supply reported Kd belonging to this molecule: `CNc1ncc(-c2ccccc2)c2cc(NC(C)C)ncc12`
Reply: 0.1 to 1 µM

Task item: Supply reported Kd belonging to this molecule: `CNc1ncc(-c2[nH]ncc2C)c2cc(NC(=O)C3CC3)ncc12`
Reply: ≤ 0.1 µM

----------
Overview of reported IC50 across a group of compounds:
System: JAK1/TYK2 pSTAT5 (Tyr694/699) in THP-1 cell line
Experiment: IFNa-stimulated JAK1/TYK2 pSTAT5 (Tyr694/699) inhibition cellular assay, AlphaLISA
Type: cell-based
Details: Homo sapiens; THP-1 cells, IFNa-stimulated, AlphaLISA (Assay B); read-out: Cellular THP1_IFNa-pSTATS_IC50

Examples from the recorded data:
Task item: Name the value of IC50 reported for `CNc1ncc(C(C)C)c2cc(NC(=O)C3CC3)ncc12` when tested on JAK1/TYK2 pSTAT5 (Tyr694/699) in THP-1 cell line.
Reply: > 500 nM

Task item: Name the value of IC50 reported for `CNc1ncc(-c2ccnn2Cc2ccccc2)c2cc(NC(=O)C3CC3)ncc12` when tested on JAK1/TYK2 pSTAT5 (Tyr694/699) in THP-1 cell line.
Reply: > 500 nM

Task item: Name the value of IC50 reported for `CNc1ncc(-c2nc(C)co2)c2cc(NC(=O)C3CC3)ncc12` when tested on JAK1/TYK2 pSTAT5 (Tyr694/699) in THP-1 cell line.
Reply: ≤ 500 nM

More entries:
Task item: Name the value of IC50 reported for `CNc1ncc(-c2cc(C)n[nH]2)c2cc(NC(=O)C3CC3)ncc12` when tested on JAK1/TYK2 pSTAT5 (Tyr694/699) in THP-1 cell line.
Reply: > 500 nM

Task item: Name the value of IC50 reported for `CNc1ncc(-c2ccccc2C(N)=O)c2cc(NC(=O)C3CC3)ncc12` when tested on JAK1/TYK2 pSTAT5 (Tyr694/699) in THP-1 cell line.
Reply: > 500 nM

Task item: Name the value of IC50 reported for `CNc1ncc(-c2ccc(Cl)cc2)c2cc(NC(=O)C3CC3)ncc12` when tested on JAK1/TYK2 pSTAT5 (Tyr694/699) in THP-1 cell line.
Reply: > 500 nM

Task item: Name the value of IC50 reported for `CNc1ncc(-c2[nH]ncc2C)c2cc(NC(=O)C3CC3)ncc12` when tested on JAK1/TYK2 pSTAT5 (Tyr694/699) in THP-1 cell line.
Reply: > 500 nM

----------
Tested on: JAK1/TYK2 pSTAT5 (Tyr694/699) in THP-1 cell line
Assay: IFNa-stimulated JAK1/TYK2 pSTAT5 (Tyr694/699) inhibition cellular assay, AlphaLISA
Assay type: cell-based
Settings: Homo sapiens; THP-1 cells, IFNa-stimulated, AlphaLISA (Assay B); read-out: Cellular THP1_IFNa-pSTATS_IC50
Overview of reported IC50 across a group of molecules:

Examples from the recorded data:
Task item: Supply reported IC50 belonging to this molecule: `CNc1ncc(-c2ccn(Cc3ncn(C)n3)n2)c2cc(NC(=O)C3CC3)ncc12`
Reply: > 500 nM

Task item: Supply reported IC50 belonging to this molecule: `CNc1ncc(COc2ccccc2)c2cc(NC(=O)C3CC3)ncc12`
Reply: > 500 nM

Task item: Supply reported IC50 belonging to this molecule: CNc1ncc(-c2ccccc2)c2cc(NC(=O)C3CC3F)ncc12 (stereo not shown)
Reply: > 500 nM

Task item: Supply reported IC50 belonging to this molecule: `CNc1ncc(-c2ccn(CC#N)n2)c2cc(NC(=O)C3CC3)ncc12`
Reply: > 500 nM

Task item: Supply reported IC50 belonging to this molecule: `CNc1ncc(C#Cc2ccccc2)c2cc(NC(=O)C3CC3)ncc12`
Reply: ≤ 500 nM

More entries:
Task item: Supply reported IC50 belonging to this molecule: `CNc1ncc(-c2cccnc2)c2cc(NC(=O)C3CC3)ncc12`
Reply: > 500 nM

Task item: Supply reported IC50 belonging to this molecule: `CNc1ncc(-c2ccc(S(C)(=O)=O)cc2)c2cc(NC(=O)C3CC3)ncc12`
Reply: > 500 nM

Task item: Supply reported IC50 belonging to this molecule: `CNc1ncc(-c2cccc(COCCOC)c2)c2cc(NC(=O)C3CC3)ncc12`
Reply: > 500 nM

----------
Biological target: TYK2 JH2 (Homo sapiens, UniProt P29597)
Construct: purchased DiscoverX (KINOMEscan KdELECT service); host or cells: E. coli BL21-derived (T7 phage display) or HEK-293
Sequence (P29597 589-875 limits assumed): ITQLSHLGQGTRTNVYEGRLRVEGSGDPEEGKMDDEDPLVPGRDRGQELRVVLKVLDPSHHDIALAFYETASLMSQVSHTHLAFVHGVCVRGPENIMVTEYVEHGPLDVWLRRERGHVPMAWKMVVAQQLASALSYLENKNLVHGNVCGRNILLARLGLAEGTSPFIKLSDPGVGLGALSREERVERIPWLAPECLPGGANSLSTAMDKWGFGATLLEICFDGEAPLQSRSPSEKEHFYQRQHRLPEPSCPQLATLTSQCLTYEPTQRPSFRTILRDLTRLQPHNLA
Assay: TYK2 JH2 binding assay (KINOMEscan KdELECT competitive binding)
Conditions: TYK2 JH2 domain, KINOMEscan KdELECT (Assay A); read-out: Biochemical TYK2_DiscoverX_JH2_BND_Kd
pKd: −log10 of the molar value.
Overview of reported pKd across a group of molecules:

Task item: Supply reported pKd belonging to this molecule: `CNc1ncc(C#Cc2ccc3nnn(C)c3c2)c2cc(Nc3ccccn3)ncc12`
Reply: ≥ 7.00

More entries:
Task item: Supply reported pKd belonging to this molecule: `CNc1ncc(-c2ccc(Cn3ccc(=O)cc3)cc2)c2cc(NC(=O)C3CC3)ncc12`
Reply: ≥ 7.00

Task item: Supply reported pKd belonging to this molecule: `CNc1ncc(C#Cc2ccc(-n3nccn3)cc2)c2cc(NC(=O)C3CC3)ncc12`
Reply: ≥ 7.00

Task item: Supply reported pKd belonging to this molecule: `CNc1ncc(C#Cc2ccc(O)c(C#N)c2)c2cc(NC(=O)C3CC3)ncc12`
Reply: ≥ 7.00
